biological target: Adrenergic receptor alpha-1 (Homo sapiens) (UniProt P35348+P25100+P35368); assay: Inhibition of adrenergic receptor alpha1 (unknown origin) at 10 uM relative to control; type: protein assay
Each record's class is read off its inhibition using these ranges: group 1 = under 40%, group 2 = from 40% up to 90%, group 3 = 90% and over

Reference set, count: 4
O=C1CCC(N2Cc3c(OCc4ccc(C(=O)N5CCN(c6ccc(F)cc6F)CC5)cc4)cccc3C2=O)C(=O)N1 (centres undefined)    group 2
O=C1CCC(N2Cc3c(OCc4ccc(C(=O)N5CCN(c6ccc(Cl)cc6Cl)CC5)cc4)cccc3C2=O)C(=O)N1 (centres undefined)    group 2
N#Cc1ccc(N2CCN(Cc3ccc(COc4cccc5c4CN(C4CCC(=O)NC4=O)C5=O)cc3)CC2)c(F)c1 (centres undefined)    group 2
CC1(C)CCN(Cc2ccc(COc3cccc4c3CN(C3CCC(=O)NC3=O)C4=O)cc2)CC1 (centres undefined)    group 1

Which bin, given its inhibition, does O=C1CCC(N2Cc3c(OCc4ccc(CN5CCC(C(F)(F)F)CC5)cc4)cccc3C2=O)C(=O)N1 (centres undefined) occupy?
group 2

Which bin, given its inhibition, does NC(=O)c1ccc(N2CCN(Cc3ccc(COc4cccc5c4CN(C4CCC(=O)NC4=O)C5=O)cc3)CC2)cn1 (centres undefined) occupy?
group 1

Which bin, given its inhibition, does O=C1CCC(N2Cc3c(OCc4ccc(C(=O)N5CCN(c6ccc(Cl)cc6)CC5)cc4)cccc3C2=O)C(=O)N1 (centres undefined) occupy?
group 1

Which bin, given its inhibition, does O=C1CCC(N2Cc3c(OCc4ccc(CN5CCN(c6ccccn6)CC5)cc4)cccc3C2=O)C(=O)N1 (centres undefined) occupy?
group 3

Which bin, given its inhibition, does O=C1CCC(N2Cc3c(OCc4ccc(CN5CCN(c6ccc(F)cn6)CC5)cc4)cccc3C2=O)C(=O)N1 (centres undefined) occupy?
group 3

Which bin, given its inhibition, does CC(C)C1CCN(Cc2ccc(COc3cccc4c3CN(C3CCC(=O)NC3=O)C4=O)cc2)CC1 (centres undefined) occupy?
group 2

Which bin, given its inhibition, does O=C1CCC(N2Cc3c(OCc4ccc(CN5CCN(c6ccc(F)cc6F)CC5)cc4)cccc3C2=O)C(=O)N1 (racemic) occupy?
group 3

Which bin, given its inhibition, does O=C1CCC(N2Cc3c(OCc4ccc(CN5CCN(c6ccc(F)cc6)CC5)cc4)cccc3C2=O)C(=O)N1 (centres undefined) occupy?
group 3

* * *

assay: Metabolic stability in human liver S9 fraction assessed as parent compound remaining after 60 mins; format: ADME, subcellular; details: read-out: Stability
Readout: remaining at 1 h
Param answer (str): number followed by unit.

Input N#Cc1ccc(N2CCN(Cc3ccc(COc4cccc5c4CN([C@H]4CCC(=O)NC4=O)C5=O)cc3)CC2)c(F)c1 [MEZIGDOMIDE] , output reported remaining at 1 h.
99%

* * *

molecular target: D(2) dopamine receptor (Homo sapiens, UniProt P14416); assay: Inhibition of D2S (unknown origin) at 10 uM relative to control
Sequence (P14416 whole entry): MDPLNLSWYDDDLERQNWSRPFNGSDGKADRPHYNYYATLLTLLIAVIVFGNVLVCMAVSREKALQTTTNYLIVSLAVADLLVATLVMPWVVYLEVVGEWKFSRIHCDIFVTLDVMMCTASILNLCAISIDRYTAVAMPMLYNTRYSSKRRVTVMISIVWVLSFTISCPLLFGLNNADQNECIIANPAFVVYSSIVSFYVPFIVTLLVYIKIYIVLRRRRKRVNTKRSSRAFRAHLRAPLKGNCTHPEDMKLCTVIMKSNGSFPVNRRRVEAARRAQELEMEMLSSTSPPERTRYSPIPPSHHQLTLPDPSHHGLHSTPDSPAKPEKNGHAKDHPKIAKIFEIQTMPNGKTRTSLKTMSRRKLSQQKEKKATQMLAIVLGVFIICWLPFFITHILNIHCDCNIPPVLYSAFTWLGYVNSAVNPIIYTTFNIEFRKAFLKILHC
Please enter class 1 where inhibition is greater than or equal to 70%, and class 0 where it is lower.

Reference set, count: 6
O=C1CCC(N2Cc3c(OCc4ccc(CN5CCN(c6ccccn6)CC5)cc4)cccc3C2=O)C(=O)N1 (centres undefined)    class 1
O=C1CCC(N2Cc3c(OCc4ccc(C(=O)N5CCN(c6ccc(Cl)cc6Cl)CC5)cc4)cccc3C2=O)C(=O)N1 (centres undefined)    class 0
O=C1CCC(N2Cc3c(OCc4ccc(C(=O)N5CCN(c6ccc(Cl)cc6)CC5)cc4)cccc3C2=O)C(=O)N1 (centres undefined)    class 0
O=C1CCC(N2Cc3c(OCc4ccc(CN5CCN(c6ccc(F)cc6F)CC5)cc4)cccc3C2=O)C(=O)N1 (racemic)    class 1
CC1(C)CCN(Cc2ccc(COc3cccc4c3CN(C3CCC(=O)NC3=O)C4=O)cc2)CC1 (centres undefined)    class 0
CC1CCN(Cc2ccc(COc3cccc4c3CN(C3CCC(=O)NC3=O)C4=O)cc2)CC1 (centres undefined)    class 1

Determine whether measured inhibition meets or exceeds 70% for CC(C)C1CCN(Cc2ccc(COc3cccc4c3CN(C3CCC(=O)NC3=O)C4=O)cc2)CC1 (centres undefined)
class 1

Determine whether measured inhibition meets or exceeds 70% for N#Cc1cccnc1N1CCN(Cc2ccc(COc3cccc4c3CN(C3CCC(=O)NC3=O)C4=O)cc2)CC1 (centres undefined)
class 1

Determine whether measured inhibition meets or exceeds 70% for O=C1CCC(N2Cc3c(OCc4ccc(C(=O)N5CCN(c6ccc(F)cc6F)CC5)cc4)cccc3C2=O)C(=O)N1 (centres undefined)
class 0

Determine whether measured inhibition meets or exceeds 70% for O=C1CCC(N2Cc3c(OCc4ccc(CN5CCN(c6ccc(F)cc6)CC5)cc4)cccc3C2=O)C(=O)N1 (centres undefined)
class 1

Determine whether measured inhibition meets or exceeds 70% for O=C1CCC(N2Cc3c(OCc4ccc(CN5CCC(C(F)(F)F)CC5)cc4)cccc3C2=O)C(=O)N1 (centres undefined)
class 1

Determine whether measured inhibition meets or exceeds 70% for O=C1CCC(N2Cc3c(OCc4ccc(CN5CCN(c6ccc(F)cn6)CC5)cc4)cccc3C2=O)C(=O)N1 (centres undefined)
class 1

Determine whether measured inhibition meets or exceeds 70% for NC(=O)c1ccc(N2CCN(Cc3ccc(COc4cccc5c4CN(C4CCC(=O)NC4=O)C5=O)cc3)CC2)cn1 (centres undefined)
class 0

Determine whether measured inhibition meets or exceeds 70% for N#Cc1ccc(N2CCN(Cc3ccc(COc4cccc5c4CN(C4CCC(=O)NC4=O)C5=O)cc3)CC2)c(F)c1 (centres undefined)
class 0

* * *

assay: Metabolic stability in rat liver S9 fraction assessed as parent compound remaining after 60 mins; type: ADME, subcellular; settings: read-out: Stability
Readout: remaining at 1 h (%)
I only need the number, in %, no unit after it.

Input N#Cc1ccc(N2CCN(Cc3ccc(COc4cccc5c4CN([C@H]4CCC(=O)NC4=O)C5=O)cc3)CC2)c(F)c1 [MEZIGDOMIDE] , output reported remaining at 1 h.
100

* * *

test system: PBMC; test: Cytotoxicity against PBMC (unknown origin); assay type: cell-based
Readout: Activity

As a guide, the following entries are already answered.
COc1ccc(N2CCN(Cc3ccc(COc4cccc5c4CN(C4CCC(=O)NC4=O)C5=O)cc3)CC2)cc1 (centres undefined)    Non-Toxic
O=C1CCC(N2Cc3c(OCc4ccc(CN5CCN(c6cccc(F)c6)CC5)cc4)cccc3C2=O)C(=O)N1 (centres undefined)    Non-Toxic
O=C1CCC(N2Cc3c(OCc4ccc(CN5CCN(c6c(F)cccc6F)CC5)cc4)cccc3C2=O)C(=O)N1 (centres undefined)    Non-Toxic
O=C1CCC(N2Cc3c(OCc4ccc(CN5CCN(c6ccc(Cl)cc6)CC5)cc4)cccc3C2=O)C(=O)N1 (centres undefined)    Non-Toxic
O=C1CCC(N2Cc3c(OCc4ccc(CN5CCN(c6ccccc6F)CC5)cc4)cccc3C2=O)C(=O)N1 (centres undefined)    Non-Toxic
O=C1CCC(N2Cc3c(OCc4ccc(CN5CCN(c6ccccc6)CC5)cc4)cccc3C2=O)C(=O)N1 (centres undefined)    Non-Toxic
O=C1CCC(N2Cc3c(OCc4ccc(CN5CCN(c6ccc(F)cc6)CC5)cc4)cccc3C2=O)C(=O)N1 (centres undefined)    Non-Toxic
O=C1CCC(N2Cc3c(OCc4ccc(CN5CCN(c6ccc(F)cc6F)CC5)cc4)cccc3C2=O)C(=O)N1 (racemic)    Non-Toxic

Write down measured Activity (PBMC) for this molecule. O=C1CCC(N2Cc3c(OCc4ccc(CN5CCN(c6ccc(Cl)cc6Cl)CC5)cc4)cccc3C2=O)C(=O)N1 (centres undefined)
Non-Toxic

* * *

assay: Clearance in Sprague-Dawley rat at 2 mg/kg, iv; assay type: ADME, organism-based; conditions: in vivo
Readout: clearance (mL/min/kg)
I only need the number, in mL/min/kg, no unit after it.

Input N#Cc1ccc(N2CCN(Cc3ccc(COc4cccc5c4CN([C@H]4CCC(=O)NC4=O)C5=O)cc3)CC2)c(F)c1 [MEZIGDOMIDE] , output reported clearance.
6.8

* * *

assay: Antiproliferative activity against lenalidomide-resistant human H929-R10-1 cells incubated for 5 days by CellTiter-Glo assay; format: functional; conditions: 120 h
Readout: pIC50
When answering, recall that pIC50 equals minus log10 of the concentration in mol/L, and write that number alone.

As a guide, the following entries are already answered.
O=C1CCC(N2Cc3c(OCc4ccc(CN5CCN(c6ccc(F)cc6F)CC5)cc4)cccc3C2=O)C(=O)N1 (racemic)    8.77
O=C1CC[C@@H](N2Cc3c(OCc4ccc(CN5CCN(c6ccc(F)cc6F)CC5)cc4)cccc3C2=O)C(=O)N1    8.37
N#Cc1cccnc1N1CCN(Cc2ccc(COc3cccc4c3CN(C3CCC(=O)NC3=O)C4=O)cc2)CC1 (stereo not drawn)    7.25

Input N#Cc1ccc(N2CCN(Cc3ccc(COc4cccc5c4CN(C4CCC(=O)NC4=O)C5=O)cc3)CC2)c(F)c1 (stereo not drawn) , output reported pIC50.
8.77

Input CN1C(=O)CCC(N2Cc3c(OCc4ccc(CN5CCN(c6ccc(F)cc6F)CC5)cc4)cccc3C2=O)C1=O (stereo not drawn) , output reported pIC50.
6.20

Input O=C1CCC(N2Cc3c(OCc4ccc(CN5CCN(c6ccccc6)CC5)cc4)cccc3C2=O)C(=O)N1 (stereo not drawn) , output reported pIC50.
8.68

Input NC(=O)c1ccc(N2CCN(Cc3ccc(COc4cccc5c4CN(C4CCC(=O)NC4=O)C5=O)cc3)CC2)cn1 (stereo not drawn) , output reported pIC50.
8.46
